molecular target: Beta-2 adrenergic receptor (Homo sapiens); assay: Adrenergic beta2 receptor (ADRB2) small molecule antagonists, cell-based qHTS assay (AID 1963592); settings: CHO-ADRB2 cells, isoproterenol-stimulated cAMP HTRF ratio, 0.5 h; series mostly up to 92.4 µM; also: nearly all actives have a fitted effect of over 50% in size
Records with an inconclusive call do not appear. Calls of active or inactive are those of the source. Calls follow the shape of the full dose curve.
Hi! Could you answer with just one of these? T (active), F (inactive)

Tell me the recorded outcome of this test for CC(=O)OC/C=C(\C)CCC=C(C)C . F

In this assay, the call recorded for Nc1ccc(S(=O)(=O)Nc2nccs2)cc1 was what? F

I'd appreciate the recorded outcome for COc1ccc(C(Cl)=C(c2ccc(OC)cc2)c2ccc(OC)cc2)cc1 from this test. F

Dear colleague, could you share the recorded outcome for CCCCCCCCCCCCN when you have a moment? F

What call does the record list for Brc1ccc(Br)c(Br)c1 ? F

What call does the record list for COCCOCCOCCO ? F

Look up the recorded call for C[Si](O[Si](C)(C)C)O[Si](C)(C)C in this test. F

Give the logged outcome of this assay for the following compound: OC(Cn1cncn1)(Cn1cncn1)c1ccc(F)cc1F F

# lookup: test call for c1ccc2scnc2c1 F

Look up the recorded call for F[B-](F)(F)F in this test. F

Please state the recorded outcome for this compound: CCN(CCN)c1cccc(C)c1 T

Per the records of this test, what outcome belongs to CCCN(CCC)S(=O)(=O)c1ccc(C(=O)O)cc1 ? F

What classification did Cc1ccc(S(=O)(=O)O)cc1 end up with in this test? F

# outcome recorded in this test, key = CCN(CC)C(=O)c1cccc(C)c1 F

GET /call?item= CC12CCC(CC1)C(C)(C)O2 returns the recorded outcome of this test. F

In this assay, the call recorded for COC(=O)CCC(=O)OC was what? F

Hello, I am checking results. What call was entered for CCCNC(=O)NS(=O)(=O)c1ccc(Cl)cc1 ? F

What classification did CCCCCCCCCC end up with in this test? F

Hi, do you know how OC(CCl)CCl came out in this test? F

Per the assay record, what outcome was assigned to C=CN1CCCC1=O ? F

Test call, this compound: C[C@]12C[C@H](O)[C@H]3[C@@H](CCC4=CC(=O)CC[C@@]43C)[C@@H]1CC[C@@H]2C(=O)CO F

Fill in: this test's call for O=C(Oc1ccccc1)c1ccccc1O is ___ F

Record request — test call for CCO[Si](CCC#N)(OCC)OCC F

Please let me know the test result on file for C/C=C/c1ccc(OCC)c(O)c1 . F

I would be grateful if you could indicate the recorded call for C=Cc1cccc(C)c1 . F

Answer briefly: the call reported for O=C(O)C1=NN(c2ccc(S(=O)(=O)O)cc2)C(=O)C1 in this assay. F

Dear colleague, could you share the recorded outcome for COCCOC(=O)c1ccccc1C(=O)OCCOC when you have a moment? F

Would you mind telling me which call this test gave Cc1cc(CC(=O)O)n(C)c1C(=O)c1ccc(Cl)cc1 ? F

What did the test return for O=C(O)CCCCCCCC(=O)O ? F

What outcome does the record of this test show for COc1ccc(OC)cc1 ? F

Can you look up the reported call for CC[C@H](C)C(=O)O[C@H]1C[C@@H](C)C=C2C=C[C@H](C)[C@H](CC[C@@H]3C[C@@H](O)CC(=O)O3)[C@H]21 for me? F

Tell me the assay call for C=C(C)C(=O)OCC(CC)(COC(=O)C(=C)C)COC(=O)C(=C)C please. F

Recorded test outcome, item CC[N+](CC)(CC(=O)Nc1c(C)cccc1C)Cc1ccccc1 F

What was the test verdict on NCCN1CCNCC1 ? F

Please let me know the test result on file for CCCCCCCCCCCC(=O)OC . F

Check the results log: what was the call for C/C=C/C=C/C(=O)O ? F

So what was the verdict on O=C(O)CCCCCCCCC(=O)O in this test? F

Recorded test call requested for Cc1cc(C)c(O)c(C)c1 F

How was O=C(OCc1ccccc1)c1ccccc1 classified in this test? F

Recorded test call requested for Oc1ccc(O)cc1 F

What was the test verdict on CC(C)(C#N)c1cc(Cn2cncn2)cc(C(C)(C)C#N)c1 ? F

Please let me know the test result on file for C1N2CN3CN1CN(C2)C3 . F

Recorded call for COC1=CC(=O)C[C@@H](C)[C@]12Oc1c(Cl)c(OC)cc(OC)c1C2=O ? F

Kindly provide the recorded test outcome for the following compound: Clc1ccccn1 F

Which outcome was assigned to CCCCCCCCCCCCOC(=O)c1cc(O)c(O)c(O)c1 in this test? F

Identify the outcome logged in this assay for the compound shown: C=CCOC(=O)CC(C)C F

Field: outcome | Entry: CCOC(=O)NNc1nncc2ccccc12 F

Per the records of this test, what outcome belongs to NNCCc1ccccc1 ? F

Status in this test for COc1ccccc1OCC(O)CO (centres undefined) ? F

Please indicate how the test categorized CCCCOCCO . F

What was the test verdict on O=C1O[C@H](CO)[C@@H](O)[C@H](O)[C@H]1O ? F

Hello, I am checking results. What call was entered for O=c1c(-c2ccc(O)cc2)coc2cc(O)cc(O)c12 ? F

Hi, sorry to bother you, what did the test record for OC[C@@H](O)[C@@H](O[C@@H]1O[C@H](CO)[C@H](O)[C@H](O)[C@H]1O)[C@H](O)[C@@H](O)CO ? F

// outcome(item) with item = CCCCCCCCCCCCCCCC(=O)O F

Query: recorded result category for CCCCC(CC)COC(=O)c1ccc(N(C)C)cc1 (centres undefined) in this test F

// outcome(item) with item = C=C(C)CNCC F

What classification did O=c1c(O)c(-c2ccc(O)c(O)c2)oc2cc(O)cc(O)c12 end up with in this test? F

# outcome recorded in this test, key = OCCOCCOCCO F

Entry CCCCCCCCCCC(CO)CCCCCCCC (centres undefined) : call = ? F

###

target: Gonadotropin-releasing hormone receptor (Homo sapiens) (UniProt P30968); experiment: Human gonadotropin-releasing hormone receptor (GnRHR) small molecule agonists, calcium flux assay in GnRHR-HEK293 cells (AID 1920063); conditions: calcium flux fluorescence, agonist mode; series mostly up to 57.6 µM; also: nearly all actives have a fitted effect of over 35% in size
Sequence (P30968 whole entry, looked up): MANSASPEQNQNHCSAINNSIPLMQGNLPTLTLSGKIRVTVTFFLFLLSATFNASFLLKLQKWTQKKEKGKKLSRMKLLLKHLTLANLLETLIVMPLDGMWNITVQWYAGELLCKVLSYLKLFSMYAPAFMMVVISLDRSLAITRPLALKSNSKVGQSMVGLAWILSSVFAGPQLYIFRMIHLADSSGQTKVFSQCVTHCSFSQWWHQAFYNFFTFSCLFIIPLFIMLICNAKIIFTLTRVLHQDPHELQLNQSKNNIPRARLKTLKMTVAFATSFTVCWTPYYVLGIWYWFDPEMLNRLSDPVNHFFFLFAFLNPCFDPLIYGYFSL
Activity calls are given as the source filed them. The call rests on the fitted dose curve.
readout type: outcome

Below: 6 compounds and their reported outcome.
>  <compound>
O=C(c1ccc(O)cc1)c1ccc(O)cc1O

>  <recorded measurement>
inactive

$$$$
>  <compound>
CC(C)(C)c1cccc(C(C)(C)C)c1O

>  <recorded measurement>
inactive

$$$$
>  <compound>
CN(C)CCC(c1ccccc1)c1ccccn1 (stereo not drawn)

>  <recorded measurement>
inactive

$$$$
>  <compound>
CC(=O)N[C@@H](CS)C(=O)O

>  <recorded measurement>
inactive

$$$$
>  <compound>
CCCC[P+](CCCC)(CCCC)CCCC

>  <recorded measurement>
inactive

$$$$
>  <compound>
C[C@]12C=CC(=O)C=C1CC[C@@H]1[C@@H]2C(=O)C[C@@]2(C)[C@H]1CC[C@]2(O)C(=O)CO

>  <recorded measurement>
inactive

$$$$

Would you kindly share the measured outcome for CC(C)[N+](C)(CCOC(=O)C1c2ccccc2Oc2ccccc21)C(C)C ? inactive

Which outcome is reported for this compound? COc1ccc(Nc2ccccc2)c(C)c1 inactive

###

test: cAMP Responsive Elements (CRE) small molecule antagonists, cell-based qHTS assay (AID 1963591); conditions: CRE-bla HEK293T, beta-lactamase FRET ratio; series mostly up to 92.4 µM
Inconclusive results are not listed. The source made the active and inactive calls. Calls come from the whole dose curve; as a rule, active = well fitted inhibition curve with a large enough effect in the signal ratio in the repeat runs (not every such curve was filed as active); inconclusive = weak or mixed curves, or effect the other way; inactive = flat fitted curve, though single readings scatter; the % refers to the signal ratio. Peptide text beside a SMILES is read from it.
Assign a class; possible classes are active, inactive

// return assay outcome for O=c1ccc2ccccc2o1 inactive

How was CN(C)C=O classified in this test? inactive

Entry CCCCCCCC(=O)O : call = ? inactive

Can you look up the reported call for CSc1ccc(Cl)cc1 for me? inactive

Lab log entry: O=C(O)c1ccc(O)cc1 — outcome as called in the assay? inactive

Field: outcome | Entry: CC(=O)OC/C=C(\C)CCC=C(C)C inactive

Look up the recorded call for COC(=O)CC(=O)OC in this test. inactive

# outcome recorded in this test, key = CCCCCCCCCCCO inactive

Called result for c1ccncc1 inactive

Test call, this compound: COCCc1ccc(OCC(O)CNC(C)C)cc1 (stereo not given) inactive

Record lookup: outcome of this test for O=C(O)c1ccc(C(=O)O)cc1 ? inactive

Per the assay record, what outcome was assigned to CCCCCCCCCCN ? inactive

Which result was noted for this compound in the test: CN1C(=O)CC[C@H]1c1cccnc1 inactive

Look up the recorded call for Cc1ccc([N+](=O)[O-])cc1S(=O)(=O)O in this test. inactive

Which outcome was entered for the compound ClC1=C(Cl)C(Cl)(Cl)C(Cl)=C1Cl in this test? inactive

Status in this test for CC(C)c1ccc(C(C)C)cc1 ? inactive

Assay outcome for COc1ccc2[nH]cc(CCNC(C)=O)c2c1 : what was it? inactive

Any idea what this test logged for Cn1c([N+](=O)[O-])cnc1COC(N)=O ? inactive

I'd appreciate the recorded outcome for CCCCCCCCC from this test. inactive

For CC1=CC[C@H]2C[C@@H]1C2(C)C , what call appears in the results of this test? inactive

Query: recorded result category for NCCN in this test inactive

Recorded call for CC(=O)NS(=O)(=O)c1ccc(N)cc1 ? inactive

Each compound tested received a call. Report the one for CCC(=O)O . inactive

Can you look up the reported call for C[N+](C)(C)CCCCCC[N+](C)(C)C for me? inactive

Called result for CC(O)C(=O)O (stereo not given) inactive

What classification did O=CCCCC=O end up with in this test? inactive

What call does the record list for c1ccc2[nH]cnc2c1 ? inactive

Kindly provide the recorded test outcome for the following compound: CC(=O)C(C)C inactive

What was the test verdict on COC(=O)[C@H](Cc1ccccc1)NC(=O)[C@@H](N)CC(=O)O (H-Asp-Phe-OMe) ? inactive

Can you look up the reported call for O=CCc1ccccc1 for me? inactive

What did the test return for CN(C)c1nc(N(C)C)nc(N(C)C)n1 ? inactive

Assay outcome for CC/C(=C(\c1ccccc1)c1ccc(OCCN(C)C)cc1)c1ccccc1 : what was it? inactive

What classification did C=Cc1ccc(C)cc1 end up with in this test? inactive

Check the results log: what was the call for CC[C@H](C)C(=O)O[C@H]1C[C@@H](C)C=C2C=C[C@H](C)[C@H](CC[C@@H]3C[C@@H](O)CC(=O)O3)[C@H]21 ? inactive

# fetch the recorded call for C=CC(=O)OCCC(=O)O here inactive

Give the logged outcome of this assay for the following compound: CCN(CC)C(=S)SSC(=S)N(CC)CC active

Given CCCCCC(N)=O , state the outcome it received in this test. inactive

Dear all, I need the recorded test outcome for CCCCC(CC)C(=O)O (stereo not given) , thank you. inactive

Hey, what did the test say about CC1=CC(=O)CC(C)(C)C1 ? inactive

Per the records of this test, what outcome belongs to Clc1cc(Cl)c(Cl)cc1Cl ? inactive

Any idea what this test logged for Cc1cccc(C)c1O ? inactive

Could you kindly confirm the outcome this assay logged for O=C(Cl)c1cccc(C(=O)Cl)c1 ? inactive

Call for entry CCCCCCOCCO : inactive

Outcome? C1N2CN3CN1CN(C2)C3 inactive

Hi team, can someone confirm the assay call for Nc1ccc2c(c1)C(=O)c1ccccc1C2=O ? inactive

Look up the recorded call for NCCN1CCNCC1 in this test. inactive

Recorded test outcome, item COC(=O)c1ccccc1O inactive

Outcome? NC(N)=Nc1nc(CSCC/C(N)=N/S(N)(=O)=O)cs1 inactive

Per the records of this test, what outcome belongs to OC[C@@H](O)[C@H](O)[C@H](O)[C@@H](O)CO ? inactive

Hello, I am checking results. What call was entered for CCCCCCCCCCCCS ? inactive

How was O=C=NCCCCCCN=C=O classified in this test? inactive

Recorded test call requested for CC(COc1ccccc1)N(CCCl)Cc1ccccc1 (stereo not given) inactive

Call for entry Nc1c2c(nc3ccccc13)CCCC2 : inactive

I would be grateful if you could indicate the recorded call for COC(=O)c1ccc(C=O)cc1 . inactive

So what was the verdict on CCO[Si](CCCN)(OCC)OCC in this test? inactive

Could you check what this test reported for Cc1cc(=O)[nH]c(=S)[nH]1 ? inactive

Hello, I am checking results. What call was entered for CCC(=O)/C=C/C1C(C)=CCCC1(C)C (stereo not given) ? inactive

Record lookup: outcome of this test for CN(C)Cc1cc(CN(C)C)c(O)c(CN(C)C)c1 ? inactive

Answer briefly: the call reported for CCCCCCCCCCCCCCCO in this assay. inactive

Could you check what this test reported for O=C(OCc1ccccc1)c1ccccc1 ? inactive

Fill in: this test's call for CN1C(C(=O)Nc2ccccn2)=C(O)c2ccccc2S1(=O)=O is ___ inactive

Just curious, what result did CCO[Si](CCC#N)(OCC)OCC get here? inactive

Status in this test for C=C(C)C1CC=C(C)CC1 (stereo not given) ? inactive

Name the outcome recorded for C=C(C#N)C(=O)OCC in the assay. inactive

Record lookup: outcome of this test for Cc1ccc(S(=O)(=O)O)cc1C ? inactive
